- tested_system: PfHPPK-GFP (Plasmodium falciparum)
- Sequence (Q25704 entry or part of it): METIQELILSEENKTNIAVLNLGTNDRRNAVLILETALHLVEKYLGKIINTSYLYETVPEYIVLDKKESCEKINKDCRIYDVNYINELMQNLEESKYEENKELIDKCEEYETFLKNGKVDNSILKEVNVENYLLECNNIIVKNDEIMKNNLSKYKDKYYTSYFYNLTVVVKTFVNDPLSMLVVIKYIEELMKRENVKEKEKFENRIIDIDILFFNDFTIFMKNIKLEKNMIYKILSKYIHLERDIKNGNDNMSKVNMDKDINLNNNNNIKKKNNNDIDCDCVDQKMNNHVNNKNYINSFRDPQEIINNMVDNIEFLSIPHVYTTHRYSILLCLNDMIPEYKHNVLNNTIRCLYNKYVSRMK
- assay_remarks: DSF-GTP (GFP-tagged protein differential scanning fluorimetry) thermal shift
- Assay type: binding
- experimental_context: read-out: ΔTm (°C)
value_type: ΔTm at 1000 µM
The reply must contain the numeric value and, after it, the unit.

Briefly, ΔTm at 1000 µM measured for "Nc1nc(N)c(/N=N/c2cccc(C(=O)O)c2)c(N)n1" : -1 °C

Sure, the documented ΔTm at 1000 µM for "CCc1nc(N)[nH]c(=O)c1CCc1cn(-c2ccc(C(=O)O)cc2)nn1" is -1.3 °C

Lookup result for "Nc1nc(N)c(/N=N/c2ccccc2)c(N)n1" ; measured ΔTm at 1000 µM: -1 °C

Record summary for "CCc1nc(N)[nH]c(=O)c1Cc1cn(-c2cccc([N+](=O)[O-])c2)nn1" : reported ΔTm at 1000 µM = -1.2 °C

# compound "CCc1nc(N)[nH]c(=O)c1Cc1cn(-c2ccc(C(=O)O)cc2)nn1" ; its ΔTm at 1000 µM = -1.2 °C

Origin of measurements: paper PMC9182141
